Test: Growth inhibition of Balb/c mouse 3T3 clone A31 cells at 250 uM after 72 hrs by MTT assay relative to control
Format: cell-based
Conditions: Balb/c 3T3 clone A31 cells, read-out: GI

| COMPOUND STRUCTURE | UNITS LABEL | inhibition at 72 h, 250 µM |
| --- | --- | --- |
| Cc1ccc2[nH]c3c(SCC(=O)Nc4cccc(C#N)c4)ncnc3c2c1 | % | 20 |

====

Biological target: Androgen receptor (Homo sapiens)
Sequence (whole entry): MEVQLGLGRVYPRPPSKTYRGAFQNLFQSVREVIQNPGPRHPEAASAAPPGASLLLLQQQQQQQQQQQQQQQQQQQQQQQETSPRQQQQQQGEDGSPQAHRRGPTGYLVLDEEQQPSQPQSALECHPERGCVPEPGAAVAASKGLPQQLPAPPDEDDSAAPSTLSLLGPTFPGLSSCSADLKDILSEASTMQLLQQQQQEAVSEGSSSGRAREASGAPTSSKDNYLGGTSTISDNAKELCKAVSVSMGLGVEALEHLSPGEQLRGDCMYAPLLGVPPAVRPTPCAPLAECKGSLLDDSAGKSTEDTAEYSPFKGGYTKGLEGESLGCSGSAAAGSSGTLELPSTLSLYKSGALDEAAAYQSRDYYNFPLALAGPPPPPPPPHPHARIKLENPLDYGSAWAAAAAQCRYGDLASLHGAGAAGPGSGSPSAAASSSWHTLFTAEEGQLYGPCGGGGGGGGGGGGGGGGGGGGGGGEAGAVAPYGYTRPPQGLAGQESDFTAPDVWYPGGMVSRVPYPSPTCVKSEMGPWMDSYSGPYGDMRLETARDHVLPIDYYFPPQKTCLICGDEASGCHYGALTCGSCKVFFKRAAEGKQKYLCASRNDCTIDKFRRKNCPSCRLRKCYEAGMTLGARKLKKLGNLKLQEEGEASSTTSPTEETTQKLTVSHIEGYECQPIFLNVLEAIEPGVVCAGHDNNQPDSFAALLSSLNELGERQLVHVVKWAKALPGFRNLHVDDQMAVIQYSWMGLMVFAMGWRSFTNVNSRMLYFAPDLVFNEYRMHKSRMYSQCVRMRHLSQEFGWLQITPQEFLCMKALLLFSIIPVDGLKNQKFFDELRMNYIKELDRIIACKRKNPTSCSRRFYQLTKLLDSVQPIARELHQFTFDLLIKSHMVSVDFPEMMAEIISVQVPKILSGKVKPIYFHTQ
Assay: Inhibition of AR signaling pathway in testosterone-stimulated human LNCAP cells assessed as cell growth inhibition at 100 uM after 6 days by MTT assay relative to control
The source made the active and inactive calls. The rule behind the calls is not given here.

| COMPOUND STRUCTURE | inhibition |
| --- | --- |
| N#Cc1ccc(N2CCN(C(=O)c3ccc(=O)[nH]c3)CC2)c(F)c1 | inactive |
| N#Cc1ccc(CN2CCN(C(=O)Cn3ccc(=O)[nH]c3=O)CC2)cc1 | inactive |
| N#Cc1ccc(NC(=O)COC(=O)Cc2cccs2)cc1Cl | Active |
| N#Cc1ccc(NC(=O)COC(=O)Cc2ccc(F)cc2)cc1Cl | inactive |
| Cc1ccc2[nH]c3c(SCC(=O)Nc4cccc(C#N)c4)ncnc3c2c1 | Active |
| N#Cc1ccc(NC(=O)CSc2nc3ccc([N+](=O)[O-])cc3s2)cc1 | inactive |

====

Experiment: Growth inhibition of Balb/c mouse 3T3 clone A31 cells after 72 hrs by MTT assay
Format: cell-based
Conditions: Balb/c 3T3 clone A31 cells

| COMPOUND | UNITS LABEL | GI50 at 72 h |
| --- | --- | --- |
| CNC(=O)c1ccc(N2C(=S)N(c3ccc(C#N)c(C(F)(F)F)c3)C(=O)C2(C)C)cc1F [ENZALUTAMIDE] | µM | 27.5 |
